Assignment: determine reported relative viability for the given compounds.
- Tested on: RERF-LC-KJ
- testSummary: relative viability (nuclei count vs DMSO), 5 days (fraction); higher = more cells survive
- measurementContext: first compound 0.253 µM

Look over these answered cases.
Nc1cccc2c1CN(C1CCC(=O)NC1=O)C2=O (centres undefined) [Lenalidomide] + C[C@]1(O)C[C@@H](c2nc(-c3ccc4ccc(-c5ccccc5)nc4c3)c3c(N)nccn32)C1 [Linsitinib] (partner 1 µM)
0.905
Nc1cccc2c1CN(C1CCC(=O)NC1=O)C2=O (centres undefined) [Lenalidomide] + NC(=O)Nc1cc(-c2cccc(F)c2)sc1C(=O)N[C@H]1CCCNC1 [AZD7762] (partner 0.2 µM)
1.01
Nc1cccc2c1CN(C1CCC(=O)NC1=O)C2=O (centres undefined) [Lenalidomide] + CS(=O)(=O)CCNCc1ccc(-c2ccc3ncnc(Nc4ccc(OCc5cccc(F)c5)c(Cl)c4)c3c2)o1 [Lapatinib] (partner 2 µM)
0.86

We now examine a further compound.
q: Please give the measured relative viability for this compound: Nc1cccc2c1CN(C1CCC(=O)NC1=O)C2=O (centres undefined) [Lenalidomide] + COc1cccc2cc(-c3nc([C@H]4CC[C@H](C(=O)O)CC4)n4ncnc(N)c34)[nH]c12 [OSI-027] (partner 0.5 µM)
a: 0.57

====

- Test system: NCI-H1395
- testSummary: relative viability (nuclei count vs DMSO), 5 days (fraction); higher = more cells survive
- measurementContext: first compound 6.325 µM
Assignment: determine reported relative viability for the given compounds.
Numbers only.

Look over these answered cases.
Cc1csc(=NC2CCCCC2)n1/N=C/c1ccc(O)c(O)c1O [MIM1] + Nc1nc2[nH]cc(CCc3ccc(C(=O)N[C@@H](CCC(=O)O)C(=O)O)cc3)c2c(=O)[nH]1 [Pemetrexed] (partner 0.2 µM)
0.697
Cc1csc(=NC2CCCCC2)n1/N=C/c1ccc(O)c(O)c1O [MIM1] + O=C(CCCCCCC(=O)Nc1ccccc1)NO [Vorinostat] (partner 1 µM)
0.422

# batch size: 2; output relative viability per entry
1. Cc1csc(=NC2CCCCC2)n1/N=C/c1ccc(O)c(O)c1O [MIM1] + N=C(N)NC(=N)NCCc1ccccc1 [Phenformin] (partner 250 µM)
2. Cc1csc(=NC2CCCCC2)n1/N=C/c1ccc(O)c(O)c1O [MIM1] + Cc1cc(Nc2cc(N3CCN(C)CC3)nc(Sc3ccc(NC(=O)C4CC4)cc3)n2)n[nH]1 [Tozasertib] (partner 0.1 µM)

a:
[0.399, 0.68]

====

- Test system: NCI-H2085
- testSummary: relative viability (nuclei count vs DMSO), 5 days (fraction); higher = more cells survive
- measurementContext: first compound 0.2 µM
Assignment: determine reported relative viability for the given compounds.
One number for each entry.

Look over these answered cases.
CCNC(=O)c1noc(-c2cc(C(C)C)c(O)cc2O)c1-c1ccc(CN2CCOCC2)cc1 [Luminespib] + CS(=O)(=O)N1CCN(Cc2cc3nc(-c4cccc5[nH]ncc45)nc(N4CCOCC4)c3s2)CC1 [Pictilisib] (partner 1 µM)
0.28
Cc1csc(=NC2CCCCC2)n1/N=C/c1ccc(O)c(O)c1O [MIM1] + CC(=O)Nc1cccc(-n2c(=O)n(C3CC3)c(=O)c3c(Nc4ccc(I)cc4F)n(C)c(=O)c(C)c32)c1 [Trametinib] (partner 0.02 µM)
0.619
CCNC(=O)c1noc(-c2cc(C(C)C)c(O)cc2O)c1-c1ccc(CN2CCOCC2)cc1 [Luminespib] + N=C(N)NC(=N)NCCc1ccccc1 [Phenformin] (partner 250 µM)
0.225
CCNC(=O)c1noc(-c2cc(C(C)C)c(O)cc2O)c1-c1ccc(CN2CCOCC2)cc1 [Luminespib] + O=C(c1cc(Cc2n[nH]c(=O)c3ccccc23)ccc1F)N1CCN(C(=O)C2CC2)CC1 [Olaparib] (partner 8 µM)
0.337
Cc1csc(=NC2CCCCC2)n1/N=C/c1ccc(O)c(O)c1O [MIM1] + Nc1nc2[nH]cc(CCc3ccc(C(=O)N[C@@H](CCC(=O)O)C(=O)O)cc3)c2c(=O)[nH]1 [Pemetrexed] (partner 0.2 µM)
0.903
CCNC(=O)c1noc(-c2cc(C(C)C)c(O)cc2O)c1-c1ccc(CN2CCOCC2)cc1 [Luminespib] + O=C(CCCCCCC(=O)Nc1ccccc1)NO [Vorinostat] (partner 1 µM)
0.31

# batch size: 5; output relative viability per entry
1. CN1CCN(CCOc2cc(OC3CCOCC3)c3c(Nc4c(Cl)ccc5c4OCO5)ncnc3c2)CC1 [Saracatinib] + O=C(c1cc(Cc2n[nH]c(=O)c3ccccc23)ccc1F)N1CCN(C(=O)C2CC2)CC1 [Olaparib] (partner 8 µM)
2. Cc1csc(=NC2CCCCC2)n1/N=C/c1ccc(O)c(O)c1O [MIM1] + N=C(N)NC(=N)NCCc1ccccc1 [Phenformin] (partner 250 µM)
3. CN1CCN(CCOc2cc(OC3CCOCC3)c3c(Nc4c(Cl)ccc5c4OCO5)ncnc3c2)CC1 [Saracatinib] + C[C@]1(O)C[C@@H](c2nc(-c3ccc4ccc(-c5ccccc5)nc4c3)c3c(N)nccn32)C1 [Linsitinib] (partner 1 µM)
4. CCNC(=O)c1noc(-c2cc(C(C)C)c(O)cc2O)c1-c1ccc(CN2CCOCC2)cc1 [Luminespib] + CC(C)C[C@H](NC(=O)[C@H](Cc1ccccc1)NC(=O)c1cnccn1)B(O)O [Bortezomib] (partner 0.002 µM)
5. Cc1csc(=NC2CCCCC2)n1/N=C/c1ccc(O)c(O)c1O [MIM1] + O=C(CCCCCCC(=O)Nc1ccccc1)NO [Vorinostat] (partner 1 µM)

a:
[0.602, 0.739, 0.901, 0.344, 0.765]

====

- System: NCI-H1975
- testSummary: relative viability (nuclei count vs DMSO), 5 days (fraction); higher = more cells survive
- measurementContext: first compound 0.2 µM
Assignment: determine reported relative viability for the given molecules.
One number for each entry.

Cc1csc(=NC2CCCCC2)n1/N=C/c1ccc(O)c(O)c1O [MIM1] + CC(=O)c1c(C)c2cnc(Nc3ccc(N4CCNCC4)cn3)nc2n(C2CCCC2)c1=O [Palbociclib] (partner 0.5 µM)
0.529
CCNC(=O)c1noc(-c2cc(C(C)C)c(O)cc2O)c1-c1ccc(CN2CCOCC2)cc1 [Luminespib] + Cc1nc(NC(=O)N2CCC[C@H]2C(N)=O)sc1-c1ccnc(C(C)(C)C(F)(F)F)c1 [Alpelisib] (partner 2 µM)
0.126

q: Please give the measured relative viability for this molecule: Cc1csc(=NC2CCCCC2)n1/N=C/c1ccc(O)c(O)c1O [MIM1] + Cc1nc(Nc2ncc(C(=O)Nc3c(C)cccc3Cl)s2)cc(N2CCN(CCO)CC2)n1 [Dasatinib] (partner 0.075 µM)
a: 0.355

====

- System: HARA
- testSummary: relative viability (nuclei count vs DMSO), 5 days (fraction); higher = more cells survive
- measurementContext: first compound 0.01 µM
Assignment: determine reported relative viability for the given compounds.
Numbers only.

Look over these answered cases.
Cc1cn(-c2cc(NC(=O)c3ccc(C)c(Nc4nccc(-c5cccnc5)n4)c3)cc(C(F)(F)F)c2)cn1 [Nilotinib] + CS(=O)(=O)CCNCc1ccc(-c2ccc3ncnc(Nc4ccc(OCc5cccc(F)c5)c(Cl)c4)c3c2)o1 [Lapatinib] (partner 2 µM)
0.686
Cc1cn(-c2cc(NC(=O)c3ccc(C)c(Nc4nccc(-c5cccnc5)n4)c3)cc(C(F)(F)F)c2)cn1 [Nilotinib] + COc1cccc2cc(-c3nc([C@H]4CC[C@H](C(=O)O)CC4)n4ncnc(N)c34)[nH]c12 [OSI-027] (partner 0.5 µM)
0.469
Cc1cn(-c2cc(NC(=O)c3ccc(C)c(Nc4nccc(-c5cccnc5)n4)c3)cc(C(F)(F)F)c2)cn1 [Nilotinib] + N=C(N)NC(=N)NCCc1ccccc1 [Phenformin] (partner 250 µM)
0.613
Cc1cn(-c2cc(NC(=O)c3ccc(C)c(Nc4nccc(-c5cccnc5)n4)c3)cc(C(F)(F)F)c2)cn1 [Nilotinib] + CCNC(=O)c1noc(-c2cc(C(C)C)c(O)cc2O)c1-c1ccc(CN2CCOCC2)cc1 [Luminespib] (partner 0.01 µM)
1.14
Cc1cn(-c2cc(NC(=O)c3ccc(C)c(Nc4nccc(-c5cccnc5)n4)c3)cc(C(F)(F)F)c2)cn1 [Nilotinib] + CC(C)C[C@H](NC(=O)[C@H](Cc1ccccc1)NC(=O)c1cnccn1)B(O)O [Bortezomib] (partner 0.002 µM)
1.11

We now examine a further compound.
q: Please give the measured relative viability for this compound: Cc1cn(-c2cc(NC(=O)c3ccc(C)c(Nc4nccc(-c5cccnc5)n4)c3)cc(C(F)(F)F)c2)cn1 [Nilotinib] + COc1cc2c(Oc3ccc(NC(=O)C4(C(=O)Nc5ccc(F)cc5)CC4)cc3F)ccnc2cc1OCCCN1CCOCC1 [Foretinib] (partner 0.25 µM)
a: 0.817

====

Assignment: determine reported relative viability for the given compounds.
- Test system: NCI-H2009
- testSummary: relative viability (nuclei count vs DMSO), 5 days (fraction); higher = more cells survive
- measurementContext: first compound 0.2 µM

Cc1csc(=NC2CCCCC2)n1/N=C/c1ccc(O)c(O)c1O [MIM1] + CC(=O)Nc1cccc(-n2c(=O)n(C3CC3)c(=O)c3c(Nc4ccc(I)cc4F)n(C)c(=O)c(C)c32)c1 [Trametinib] (partner 0.02 µM)
0.257

We now examine a further compound.
q: Please give the measured relative viability for this compound: CCNC(=O)c1noc(-c2cc(C(C)C)c(O)cc2O)c1-c1ccc(CN2CCOCC2)cc1 [Luminespib] + Cc1nc(Nc2ncc(C(=O)Nc3c(C)cccc3Cl)s2)cc(N2CCN(CCO)CC2)n1 [Dasatinib] (partner 0.075 µM)
a: 0.0808

Values were extracted from the supplement of paper PMC10307832.
